target: Disintegrin and metalloproteinase domain-containing protein 17 (Homo sapiens, UniProt P78536); assay: Inhibition of ADAM-17 in human A2774 cells assessed as inhibition of pervanadate-induced sALCAM release incubated for 30 mins prior to pervanadate induction measured after 90 mins by ELISA; format: cell-based
Sequence (P78536 whole entry, the tested form may be a part): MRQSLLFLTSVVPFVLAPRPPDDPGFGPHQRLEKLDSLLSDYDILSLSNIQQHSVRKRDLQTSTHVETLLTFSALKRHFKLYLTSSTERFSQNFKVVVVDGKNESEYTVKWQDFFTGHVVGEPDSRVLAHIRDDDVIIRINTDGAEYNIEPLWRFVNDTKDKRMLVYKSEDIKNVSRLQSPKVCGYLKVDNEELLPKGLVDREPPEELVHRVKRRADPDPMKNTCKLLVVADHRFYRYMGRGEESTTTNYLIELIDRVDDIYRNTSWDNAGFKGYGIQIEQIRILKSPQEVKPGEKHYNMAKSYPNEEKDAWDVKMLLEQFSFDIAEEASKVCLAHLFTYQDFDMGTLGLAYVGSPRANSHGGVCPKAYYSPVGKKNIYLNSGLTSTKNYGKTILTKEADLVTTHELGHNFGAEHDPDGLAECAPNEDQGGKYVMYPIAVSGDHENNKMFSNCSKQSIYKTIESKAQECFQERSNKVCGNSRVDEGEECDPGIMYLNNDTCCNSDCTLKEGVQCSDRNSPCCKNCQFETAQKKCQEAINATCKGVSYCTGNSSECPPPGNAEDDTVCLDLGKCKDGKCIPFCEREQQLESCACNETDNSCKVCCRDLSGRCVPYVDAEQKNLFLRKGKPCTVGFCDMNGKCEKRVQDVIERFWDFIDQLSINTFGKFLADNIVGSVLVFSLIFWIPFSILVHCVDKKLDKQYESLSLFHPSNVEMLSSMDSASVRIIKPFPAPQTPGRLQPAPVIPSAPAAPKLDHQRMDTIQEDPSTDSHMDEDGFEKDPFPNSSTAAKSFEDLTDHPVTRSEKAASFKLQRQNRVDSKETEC
Quantity measured: pIC50
pIC50 (log units): -log10 of the concentration in mol/L.

Input line: For O=C(NCCC[C@@H](NS(=O)(=O)c1ccc(OCc2cc(Br)cc(Br)c2)cc1)C(=O)NO)OCc1ccccc1 , what is its reported pIC50?
Output line: 6.56

Input line: Entry CC#CCOc1ccc(S(=O)(=O)N[C@H](CCNC(=O)OCc2ccccc2)C(=O)NO)cc1 has what pIC50?
Output line: 7.59

Input line: Request the reported pIC50 associated with O=C(NCC[C@@H](NS(=O)(=O)c1ccc(OCc2cc(Br)cc(Br)c2)cc1)C(=O)NO)OCc1ccccc1
Output line: 5.86

Input line: Report pIC50 for NC(=O)NCCC[C@@H](NS(=O)(=O)c1ccc(OCc2cc(Br)cc(Br)c2)cc1)C(=O)NO please.
Output line: 7.35
